I'd be grateful if you could share measured Ki for these entries.
- Measured On: dopamine D2 receptor (Homo sapiens, UniProt P14416)
- Sequence (P14416 whole entry): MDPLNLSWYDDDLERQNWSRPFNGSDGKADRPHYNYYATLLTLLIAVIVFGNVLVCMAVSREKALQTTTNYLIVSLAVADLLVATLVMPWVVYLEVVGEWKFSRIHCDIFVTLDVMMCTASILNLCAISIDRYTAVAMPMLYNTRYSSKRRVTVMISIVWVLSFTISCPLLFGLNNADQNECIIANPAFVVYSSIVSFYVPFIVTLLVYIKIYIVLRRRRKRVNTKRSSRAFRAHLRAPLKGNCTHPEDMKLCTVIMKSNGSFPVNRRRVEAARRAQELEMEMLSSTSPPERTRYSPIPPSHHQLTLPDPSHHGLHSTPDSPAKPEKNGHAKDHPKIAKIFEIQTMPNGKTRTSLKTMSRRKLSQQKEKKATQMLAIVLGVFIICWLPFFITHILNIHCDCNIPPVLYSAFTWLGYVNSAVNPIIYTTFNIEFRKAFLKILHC
- Assay Remarks: Dopamine D2 receptor binding ([3H]spiperone radioligand binding)
- Condition Info: [3H]spiperone binding, membrane preparation from CHO-hD2L cells
Answer with the figure and its unit, nothing else.

Known results for molecules:
> print(dat)
                                 smiles.str  measurement.kind  assay.value
1  COc1cccc(S(=O)(=O)Nc2ccc(CCN3CCN(c4nsc5ccccc45)CC3)cc2)c1                Ki      8.58 nM
2  Cc1cc(C(=O)Nc2ccc(CCN3CCN(c4nsc5ccccc45)CC3)cc2)n(C)n1                Ki       8.2 nM

Please look at the following molecule next.
Incoming: Look up Ki for this molecule: `Cc1cc(C(=O)Nc2ccc(CCN3CCN(c4nsc5ccccc45)CC3)cc2)c(C)o1`
Outgoing: 6.32 nM

====

Give melting point for every item shown.
Dear colleague, please send the value followed by its unit.

> print(dat)
                                 smiles.str  assay.value
1  COc1cc(CCN2CCN(c3nsc4ccccc34)CC2)c(NC(=O)Cc2ccccc2)cc1OC       142 °C
2  CC(C)=CC(=O)Nc1ccccc1CCN1CCN(c2nsc3ccccc23)CC1        52 °C

Respectfully, I request melting point for each entry included below.
1. COc1cc(CCN2CCN(c3nsc4ccccc34)CC2)c(NS(=O)(=O)c2ccccc2F)cc1OC
2. Cn1cnc(S(=O)(=O)Nc2ccc(OCCN3CCN(c4nsc5ccccc45)CC3)cc2)c1
3. O=C(Cc1cccs1)Nc1ccc(OCCN2CCN(c3nsc4ccccc34)CC2)cc1
4. O=S(=O)(Nc1ccc(OCCN2CCN(c3nsc4ccccc34)CC2)cc1)c1ccccc1
5. COc1ccc(OC)c(S(=O)(=O)Nc2ccc(OCCN3CCN(c4nsc5ccccc45)CC3)cc2)c1
6. COc1cc(CCN2CCN(c3nsc4ccccc34)CC2)c(NC(=O)C=C(C)C)cc1OC

Outgoing:
167 °C
176 °C
142 °C
65 °C
78 °C
58 °C

====

Please go through the items and note down their melting point.
One number for each entry, in °C.

> print(dat)
                                   molecule  assay.value
1  Cc1nn(C)c(Cl)c1S(=O)(=O)Nc1ccc(OCCN2CCN(c3nsc4ccccc34)CC2)cc1           85
2  COc1cc(CCN2CCN(c3nsc4ccccc34)CC2)c(NS(=O)(=O)c2c(C)nn(C)c2C)cc1OC          196
3  CC(=O)Nc1ccc(S(=O)(=O)Nc2ccc(OCCN3CCN(c4nsc5ccccc45)CC3)cc2)cc1          120

Go through the list and state melting point for each entry.
1. COc1cc(CCN2CCN(c3nsc4ccccc34)CC2)c(NC(C)=O)cc1OC
2. CC(=O)OC(C)C(=O)Nc1ccc(OCCN2CCN(c3nsc4ccccc34)CC2)cc1 (stereo not drawn)
3. COc1cc(CCN2CCN(c3nsc4ccccc34)CC2)c(NC(=O)Cc2ccc(Cl)cc2)cc1OC

Outgoing:
120
90
152

====

- Measured On: serotonin 2A (5HT2A) receptor (Homo sapiens, UniProt P28223)
- Sequence (P28223 whole entry): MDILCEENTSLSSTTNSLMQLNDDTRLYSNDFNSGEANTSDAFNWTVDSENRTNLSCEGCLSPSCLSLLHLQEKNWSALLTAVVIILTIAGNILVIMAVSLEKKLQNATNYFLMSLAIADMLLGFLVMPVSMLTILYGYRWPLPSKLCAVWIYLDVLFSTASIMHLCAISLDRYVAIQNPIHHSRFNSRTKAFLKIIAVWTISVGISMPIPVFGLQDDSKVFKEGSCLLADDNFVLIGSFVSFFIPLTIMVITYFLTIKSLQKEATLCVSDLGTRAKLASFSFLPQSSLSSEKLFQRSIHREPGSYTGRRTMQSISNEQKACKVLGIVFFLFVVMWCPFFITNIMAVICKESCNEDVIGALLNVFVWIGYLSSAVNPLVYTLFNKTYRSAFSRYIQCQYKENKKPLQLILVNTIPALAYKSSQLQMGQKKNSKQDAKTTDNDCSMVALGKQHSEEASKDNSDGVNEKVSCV
Measurement Kind: pKi
Numbers only, as −log10 of the molar value.

Incoming: What value of measured pKi is listed for Cc1cc(C(=O)Nc2ccc(CCN3CCN(c4nsc5ccccc45)CC3)cc2)c(C)o1 [Example 27] ?
Outgoing: 8.84

Attribution: patent US7101886B2
